# Test system: 276233-004-R-J1-PDC KRAS spheroids with HUVEC/MSC, viability;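 also: cells exposed to agents for seven days before viability read; 100% = DMSO vehicle control wells and lower values mean fewer viable cells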
# runDescription: Anticancer human tumor 276233-004-R-J1-PDC patient-derived colon adenocarcinoma cell line growth inhibition [KRAS2]
# measurementContext: second compound 0.316 µM; first compound 3.16 µM; active compounds read low
Some compounds, each annotated with its measured viability, T/C.
Please reply with the bare figure in % and do not write the unit itself.

{"compound": "CC1(C)CCC(CN2CCN(c3ccc(C(=O)NS(=O)(=O)c4ccc(NCC5CCOCC5)c([N+](=O)[O-])c4)c(Oc4cnc5[nH]ccc5c4)c3)CC2)=C(c2ccc(Cl)cc2)C1 + COc1cc2nc(C)nc(NC(C)c3cc(N)cc(C(F)(F)F)c3)c2cc1OC1CCOC1", "target": "276233-004-R-J1-PDC KRAS spheroids with HUVEC/MSC, viability", "attributeMeasured": "viability, T/C", "testValue": 67}

Continue with the next compound.
Fill in the recorded viability, T/C for this compound, with 276233-004-R-J1-PDC KRAS spheroids with HUVEC/MSC, viability as test system: CC1COCCN1c1cc(-c2ccnn2C)c2ccnc(-c3ccn[nH]3)c2n1 (configuration not stated) + C=CC(=O)N1CCN(c2nc(=O)n(-c3c(C)ccnc3C(C)C)c3nc(-c4c(O)cccc4F)c(F)cc23)C(C)C1
55.1
